- Tested on: Morganella morganii
- Assay Remarks: Antibacterial activity against beta-lactamase producing Morganella morganii 25830 after 18 hrs by agar dilution assay
- Format: functional
- Reported Conditions: Morganella morganii, 25830, 18 h
# MIC annotations

{"columns": ["Molecule", "System Tested", "Value Qualifier", "MIC, µg/mL"],
 "data": [
  ["CC1(C)[C@H](NC(=O)/C(=N\\OCc2ccccc2)c2csc(N)n2)C(=O)N1S(=O)(=O)O", "Morganella morganii", ">", 64],
  ["CCN(CC)CC.Cc1ccc(O)c(/C=N/NC(=O)c2ccc(CO/N=C(\\C(=O)N[C@@H]3C(=O)N(S(=O)(=O)O)[C@H]3C)c3csc(N)n3)cc2)c1 (relative stereo)", "Morganella morganii", "=", 0.12],
  ["CC1(C)[C@H](NC(=O)/C(=N\\OCc2ccccn2)c2csc(N)n2)C(=O)N1S(=O)(=O)O", "Morganella morganii", "=", 0.5],
  ["CCN(CC)CC.C[C@H]1[C@H](NC(=O)/C(=N\\OCc2ccc(C(=O)N/N=C/c3ncc[nH]3)cc2)c2csc(N)n2)C(=O)N1S(=O)(=O)O", "Morganella morganii", "=", 0.25],
  ["C[C@H]1[C@H](NC(=O)/C(=N\\OC(C)(C)C(=O)O)c2csc(N)n2)C(=O)N1S(=O)(=O)O [AZTREONAM]", "Morganella morganii", "=", 0.125],
  ["CC1(C)[C@H](NC(=O)/C(=N\\OCc2cn(CC3CC3)nn2)c2csc(N)n2)C(=O)N1S(=O)(=O)O", "Morganella morganii", ">", 64],
  ["CCN(CC)CC.C[C@H]1[C@H](NC(=O)/C(=N\\OCc2ccc(C(=O)N/N=C/c3ccc(O)cc3O)cc2)c2csc(N)n2)C(=O)N1S(=O)(=O)O (relative stereo)", "Morganella morganii", "=", 0.12],
  ["CC1(C)[C@H](NC(=O)/C(=N\\OCc2cn(CC(=O)O)nn2)c2csc(N)n2)C(=O)N1S(=O)(=O)O", "Morganella morganii", ">", 64],
  ["CC1(C)[C@H](NC(=O)/C(=N\\OCc2cccnc2)c2csc(N)n2)C(=O)N1S(=O)(=O)O", "Morganella morganii", "=", 0.5],
  ["CC1(C)[C@H](NC(=O)/C(=N\\OCc2ccc(C(=O)O)cc2)c2csc(N)n2)C(=O)N1S(=O)(=O)O", "Morganella morganii", ">", 64],
  ["C[C@H]1[C@H](NC(=O)/C(=N\\OCc2cn(C)nn2)c2csc(N)n2)C(=O)N1S(=O)(=O)O (relative stereo)", "Morganella morganii", "=", 0.5],
  ["CCN(CC)CC.C[C@H]1[C@H](NC(=O)/C(=N\\OCc2ccc(C(=O)N/N=C/c3ccccc3O)cc2)c2csc(N)n2)C(=O)N1S(=O)(=O)O (relative stereo)", "Morganella morganii", "=", 2],
  ["CCN(CC)CC.C[C@H]1[C@H](NC(=O)/C(=N\\OCc2ccc(C(=O)N/N=C/c3cccs3)cc2)c2csc(N)n2)C(=O)N1S(=O)(=O)O (relative stereo)", "Morganella morganii", "=", 1],
  ["CCN(CC)CC.C[C@H]1[C@H](NC(=O)/C(=N\\OCc2ccc(C(=O)N/N=C/c3ccc4ccccc4c3O)cc2)c2csc(N)n2)C(=O)N1S(=O)(=O)O", "Morganella morganii", "=", 0.06],
  ["Cn1cc(CO/N=C(\\C(=O)N[C@@H]2C(=O)N(S(=O)(=O)O)C2(C)C)c2csc(N)n2)nn1", "Morganella morganii", "=", 0.125]
]}

###

- System: Pseudomonas aeruginosa
- Assay Remarks: Antibacterial activity against BL positive Pseudomonas aeruginosa 27853 after 18 hrs by agar dilution assay
- Type: functional
- Reported Conditions: Pseudomonas aeruginosa, 27853, 18 h
# MIC values compiled below
Observed Property: MIC

{"columns": ["Molecule Smiles", "Endpoint Value"],
 "data": [
  ["CC1(C)[C@H](NC(=O)/C(=N\\OCc2ccc(C(=O)O)cc2)c2csc(N)n2)C(=O)N1S(=O)(=O)O", "> 64 µg/mL"],
  ["CC1(C)[C@H](NC(=O)/C(=N\\OCc2cccnc2)c2csc(N)n2)C(=O)N1S(=O)(=O)O", "> 128 µg/mL"],
  ["CC1(C)[C@H](NC(=O)/C(=N\\OCc2ccccc2)c2csc(N)n2)C(=O)N1S(=O)(=O)O", "> 64 µg/mL"]
]}

###

- Test system: Pseudomonas aeruginosa
- Assay Remarks: Antibacterial activity against BL positive Pseudomonas aeruginosa 27853 after 18 hrs by agar dilution assay
- Type: functional
- Reported Conditions: Pseudomonas aeruginosa, 27853, 18 h
Below, each entry is listed with its recorded MIC.
Observed Property: MIC

{"columns": ["Compound", "Endpoint Value"],
 "data": [
  ["CC1(C)[C@H](NC(=O)/C(=N\\OCc2cn(CC3CC3)nn2)c2csc(N)n2)C(=O)N1S(=O)(=O)O", "> 64 µg/mL"],
  ["CC1(C)[C@H](NC(=O)/C(=N\\OCc2cn(CC(=O)O)nn2)c2csc(N)n2)C(=O)N1S(=O)(=O)O", "> 64 µg/mL"],
  ["C[C@H]1[C@H](NC(=O)/C(=N\\OCc2cn(C)nn2)c2csc(N)n2)C(=O)N1S(=O)(=O)O (relative stereo)", "> 128 µg/mL"],
  ["Cn1cc(CO/N=C(\\C(=O)N[C@@H]2C(=O)N(S(=O)(=O)O)C2(C)C)c2csc(N)n2)nn1", "> 64 µg/mL"]
]}

###

- System: Klebsiella pneumoniae
- Assay Remarks: Antibacterial activity against ESBL negative Klebsiella pneumoniae 7 after 18 hrs by agar dilution assay
- Type: functional
- Reported Conditions: Klebsiella pneumoniae, 7, 18 h
Observed Property: MIC (µg/mL)

{"columns": ["Compound", "Value Qualifier", "Endpoint Value"],
 "data": [
  ["CC1(C)[C@H](NC(=O)/C(=N\\OCc2ccccc2)c2csc(N)n2)C(=O)N1S(=O)(=O)O", ">", 64],
  ["C[C@H]1[C@H](NC(=O)/C(=N\\OC(C)(C)C(=O)O)c2csc(N)n2)C(=O)N1S(=O)(=O)O [AZTREONAM]", "≤", 0.03],
  ["Cn1cc(CO/N=C(\\C(=O)N[C@@H]2C(=O)N(S(=O)(=O)O)C2(C)C)c2csc(N)n2)nn1", "=", 2],
  ["CC1(C)[C@H](NC(=O)/C(=N\\OCc2ccccn2)c2csc(N)n2)C(=O)N1S(=O)(=O)O", "=", 4],
  ["CC1(C)[C@H](NC(=O)/C(=N\\OCc2cn(CC(=O)O)nn2)c2csc(N)n2)C(=O)N1S(=O)(=O)O", "=", 1],
  ["CCN(CC)CC.C[C@H]1[C@H](NC(=O)/C(=N\\OCc2ccc(C(=O)N/N=C/c3ccc4ccccc4c3O)cc2)c2csc(N)n2)C(=O)N1S(=O)(=O)O", "=", 2],
  ["CCN(CC)CC.Cc1ccc(O)c(/C=N/NC(=O)c2ccc(CO/N=C(\\C(=O)N[C@@H]3C(=O)N(S(=O)(=O)O)[C@H]3C)c3csc(N)n3)cc2)c1 (relative stereo)", "=", 2]
]}

###

- Tested on: Proteus vulgaris
- Assay Remarks: Antibacterial activity against beta-lactamase producing Proteus vulgaris 29905 after 18 hrs by agar dilution assay
- Assay type: functional
- Reported Conditions: Proteus vulgaris, 29905, 18 h
MIC vs 0.2 µg/mL: less than gives 1 (yes); not less than gives 0 (no).

{"columns": ["Molecule", "Answer Label"],
 "data": [
  ["CCN(CC)CC.Cc1ccc(O)c(/C=N/NC(=O)c2ccc(CO/N=C(\\C(=O)N[C@@H]3C(=O)N(S(=O)(=O)O)[C@H]3C)c3csc(N)n3)cc2)c1 (relative stereo)", "0 (no)"],
  ["CC1(C)[C@H](NC(=O)/C(=N\\OCc2ccccc2)c2csc(N)n2)C(=O)N1S(=O)(=O)O", "0 (no)"],
  ["CC1(C)[C@H](NC(=O)/C(=N\\OCc2cn(CC3CC3)nn2)c2csc(N)n2)C(=O)N1S(=O)(=O)O", "0 (no)"],
  ["CCN(CC)CC.C[C@H]1[C@H](NC(=O)/C(=N\\OCc2ccc(C(=O)N/N=C/c3cccs3)cc2)c2csc(N)n2)C(=O)N1S(=O)(=O)O (relative stereo)", "1 (yes)"],
  ["CC1(C)[C@H](NC(=O)/C(=N\\OCc2ccccn2)c2csc(N)n2)C(=O)N1S(=O)(=O)O", "1 (yes)"],
  ["CC1(C)[C@H](NC(=O)/C(=N\\OCc2ccc(C(=O)O)cc2)c2csc(N)n2)C(=O)N1S(=O)(=O)O", "1 (yes)"],
  ["Cn1cc(CO/N=C(\\C(=O)N[C@@H]2C(=O)N(S(=O)(=O)O)C2(C)C)c2csc(N)n2)nn1", "1 (yes)"],
  ["CC1(C)[C@H](NC(=O)/C(=N\\OCc2cn(CC(=O)O)nn2)c2csc(N)n2)C(=O)N1S(=O)(=O)O", "1 (yes)"],
  ["C[C@H]1[C@H](NC(=O)/C(=N\\OCc2cn(C)nn2)c2csc(N)n2)C(=O)N1S(=O)(=O)O (relative stereo)", "0 (no)"],
  ["CCN(CC)CC.C[C@H]1[C@H](NC(=O)/C(=N\\OCc2ccc(C(=O)N/N=C/c3ccccc3O)cc2)c2csc(N)n2)C(=O)N1S(=O)(=O)O (relative stereo)", "0 (no)"],
  ["CCN(CC)CC.C[C@H]1[C@H](NC(=O)/C(=N\\OCc2ccc(C(=O)N/N=C/c3ccc(O)cc3O)cc2)c2csc(N)n2)C(=O)N1S(=O)(=O)O (relative stereo)", "0 (no)"],
  ["CCN(CC)CC.C[C@H]1[C@H](NC(=O)/C(=N\\OCc2ccc(C(=O)N/N=C/c3ccc4ccccc4c3O)cc2)c2csc(N)n2)C(=O)N1S(=O)(=O)O", "0 (no)"],
  ["CC1(C)[C@H](NC(=O)/C(=N\\OCc2cccnc2)c2csc(N)n2)C(=O)N1S(=O)(=O)O", "0 (no)"],
  ["CCN(CC)CC.C[C@H]1[C@H](NC(=O)/C(=N\\OCc2ccc(C(=O)N/N=C/c3ncc[nH]3)cc2)c2csc(N)n2)C(=O)N1S(=O)(=O)O", "1 (yes)"]
]}

Origin of measurements: ChEMBL document CHEMBL3763031
